Test system: OVCAR-3 ovarian
test details: NCI tumour cell line growth inhibition, 48 h
GI50 by entry:

Oc1ccccc1-c1nn(CNc2cccc(Cl)c2)c(=S)o1	30.4 µM
CC(C)(C)NC(C1=CC(C)(C)c2ccccc2C1=O)c1ccccc1 (centres undefined)	1.31 µM

Query: Quick one: GI50 for `CC(=O)[CH-]C(=O)c1ccccc1.CC(=O)[CH-]C(=O)c1ccccc1.CC[O-].CC[O-].[Zr+4]` ?
Reply: > 100 µM

Query: Quick one: GI50 for `COC(=O)Nc1nc2ccc(Oc3ccc(NC(=O)Nc4cccc(C(=O)O)c4)cc3)cc2[nH]1` ?
Reply: 4.41 µM

====

System: HT29 colon
test details: NCI tumour cell line growth inhibition, 48 h
log10 of TGI by entry:
For clarity, the numbers are log10 values of TGI expressed in µM.

Consider the worked cases shown below.
O=c1[nH]nc(Cc2ccccc2)n1/N=C/c1c(O)ccc2ccccc12	1.92
C[C@@H]1CN(C(=O)c2ccc(NC(=O)c3cc(O[C@H](C)c4c(Cl)ccc(F)c4Cl)c(N)nn3)cc2)C[C@H](C)N1	0.54
CC1CC2(C)ON=C(c3ccccc3)N2c2ccccc2S1 (stereo not given)	1.90

Query: Quick one: log10 of TGI for `Cn1cc(-c2nc(-c3c[nH]c4ncccc34)cs2)c2cc(F)ccc21` ?
Reply: 0.66

Query: Quick one: log10 of TGI for `O=c1c2cccc(Cl)c2sc2c(NCCCNCCO)nc3ccccc3c12` ?
Reply: 0.53

Query: Quick one: log10 of TGI for `CC(C)(C)NCc1cc(Nc2ccnc3cc(Cl)ccc23)cc(-c2ccc(Cl)cc2)c1O` ?
Reply: 0.65

Query: Quick one: log10 of TGI for CCN1CCC(O)(c2ccc(C)cc2)C(C(=O)c2ccc(C)cc2)C1 (stereo not given) ?
Reply: 1.57

Query: Quick one: log10 of TGI for `CCCN(CCC)C(=O)C1=Cc2ccc(-c3ccc(C(=O)N4CCCC4)cc3)cc2N=C(N)C1` ?
Reply: 1.46

====

TGI by entry:
Tested on: SK-MEL-2 melanoma
test details: NCI tumour cell line growth inhibition, 48 h

Consider the worked cases shown below.
COc1ccc(C[C@@H]2Cc3cc(OC)c(OC)cc3CN2C)cc1	> 100 µM
Cn1c2ccccc2c(=S)c2ccccc21	> 100 µM

API: the following record is the query input.
Query: Quick one: TGI for `C#CCOC(=O)c1ccccc1O` ?
Reply: > 100 µM

====

Tested on: COLO 205 colon
test details: NCI tumour cell line growth inhibition, 48 h
assay endpoint: GI50

Consider the worked cases shown below.
N#C/C(=C\c1ccc(-c2ccc(Cl)cc2)o1)C(=O)Nc1ncc(Cc2ccc(Cl)cc2)s1	2450 nM
Oc1ccccc1-c1nn(CNc2cccc(Cl)c2)c(=S)o1	53800 nM
Cn1cc(-c2nc(-c3c[nH]c4ncccc34)cs2)c2cc(F)ccc21	2690 nM
C=C1C(=O)O[C@H]2[C@H]1CC/C(COC(=O)CCCCC(=O)OC/C1=C/CC[C@@]3(C)O[C@H]3[C@H]3OC(=O)C(=C)[C@@H]3CC1)=C\CC[C@@]1(C)O[C@@H]21	1290 nM

Query: Quick one: GI50 for `COc1cc(-c2nc(Nc3nc4ccccc4[nH]3)nc(N)c2C#N)cc(OC)c1OC` ?
Reply: 1740 nM

====

System: OVCAR-4 ovarian
test details: NCI tumour cell line growth inhibition, 48 h
assay endpoint: TGI

O=c1cc(-c2ccccc2)[nH]c2cc(F)c(F)cc12	> 100 µM
O=C1CCCCC1CN1CCCC1 (stereo not given)	> 100 µM
COC1=C2CC(C)CC(OC)[C@@H](OC(=O)CCN)[C@H](C)/C=C(\C)C(OC(N)=O)C(OC)/C=C\C=C(/C)C(=O)NC(=CC1=O)C2=O (stereo not given in full)	12.6 µM

Query: Quick one: TGI for C=C1C(=O)O[C@@H]2[C@H]1C[C@@H](O)[C@H](C)[C@@](O)(C(=O)/C=C/C)[C@H]2OC(=O)C(C)CC (stereo not given in full) ?
Reply: 22.8 µM

Query: Quick one: TGI for `Cc1ccc(S(=O)(=O)N2CCN(S(=O)(=O)c3ccc(C)cc3)Cc3ccccc3C2)cc1` ?
Reply: 90.8 µM

====

Test system: OVCAR-4 ovarian
test details: NCI tumour cell line growth inhibition, 48 h
GI50 by entry:

Consider the worked cases shown below.
Cn1cncc1[C@@](N)(c1ccc(Cl)cc1)c1ccc2c(c1)c(-c1cccc(Cl)c1)cc(=O)n2C	2.14 µM
O=[N+]([O-])c1ccc(Br)c([N+](=O)[O-])c1	1.72 µM
C[n+]1c(/C=C\c2ccc(Cl)cc2)ccc2ccccc21	12 µM

API: the following record is the query input.
Query: Quick one: GI50 for `Cn1ccnc1C(=O)/C=C/c1ccc(C(=O)Nc2ccc(Cl)cc2)cc1` ?
Reply: 0.981 µM

====

TGI by entry:
Test system: HCT-116 colon
test details: NCI tumour cell line growth inhibition, 48 h

Consider the worked cases shown below.
C=CCCCC1CCCNC1=O (configuration not stated)	> 100 µM
COCc1nc2c(OC)cc(-c3nc4nc(N5CCN(C)CC5)ccc4[nH]3)c(OC)c2[nH]1	> 100 µM
CC(=O)O[C@H]1C(=O)[C@@]2(C)[C@H]([C@H](OC(=O)c3ccccc3)[C@]3(O)C[C@H](OC(=O)[C@H](OC(=O)OCCC(O)CO)[C@@H](NC(=O)c4ccccc4)c4ccccc4)C(C)=C1C3(C)C)[C@]1(OC(C)=O)CO[C@@H]1C[C@@H]2O (some centres not stated)	11.3 µM
Cc1cc(N2CCCCC2)nc(N(CCCNc2ccnc3cc(Cl)ccc23)Cc2ccco2)n1	3.28 µM

Query: Param readout = TGI; param system = HCT-116 colon; param query = `CN(C)c1ccc(N2Cc3ccccc3OC3=C2C(=O)c2c(O)ccc(O)c2C3=O)cn1` ; response: value
Reply: 0.288 µM

Query: Param readout = TGI; param system = HCT-116 colon; param query = `COc1cc(N=CN(C)C)c2ncccc2c1` ; response: value
Reply: > 100 µM

Query: Param readout = TGI; param system = HCT-116 colon; param query = `COC(=O)[C@@H]1CN(C(=O)c2ccccc2)C(=O)N1` ; response: value
Reply: > 100 µM

====

TGI by entry:
System: DLD-1 colon
test details: NCI tumour cell line growth inhibition, 48 h

COc1ccc(C[C@@H]2Cc3cc(OC)c(OC)cc3CN2C)cc1	> 100 µM

Query: Quick one: TGI for COC(=O)C1=C(O)c2cc(OC)c(OC)c(OC)c2[C@H](c2cc(OC)c(OC)c(OC)c2)C1C(=O)OC (stereo partly specified) ?
Reply: > 100 µM

Query: Quick one: TGI for `C=CCc1cc(-c2cc(CC=C)c(O)c(CN(CCCl)CCCl)c2)cc(CN(CCCl)CCCl)c1O` ?
Reply: 36.2 µM

Query: Quick one: TGI for COc1c(Cl)c2c(c(OC)c1OC)-c1ccc(OC)c(=O)c(Cl)c1C(NC(C)=O)CC2 (stereo unspecified) ?
Reply: > 100 µM

====

Test system: NCI-H522 lung
test details: NCI tumour cell line growth inhibition, 48 h
assay endpoint: TGI (µM)
The figure you give is taken to be in µM; do not add the unit.

COc1cc(C(=O)c2ccc3c(c2)OCO3)cc(OC)c1OC	8.84
COc1ccc(N2C(=O)C3c4[nH]c5ccc(OC)cc5c4C4CCC(C(C)(C)C)CC4C3C2=O)cc1 (centres undefined)	89.3

Query: Quick one: TGI for `COc1ccc2nc(-c3cc(-c4cc(OC)c(OC)c(OC)c4)n[nH]3)[nH]c2c1` ?
Reply: 3.98

====

GI50 by entry:
Test system: OVCAR-8 ovarian
test details: NCI tumour cell line growth inhibition, 48 h

Consider the worked cases shown below.
Oc1ccc2cc(Br)ccc2c1-c1c(O)ccc2cc(Br)ccc12	3.9 µM
CC(C)(C)NC(C1=CC(C)(C)c2ccccc2C1=O)c1ccccc1 (centres undefined)	1.74 µM
O=c1cc(-c2cccc(C(F)(F)F)c2)[nH]c2cc3c(cc12)OCO3	0.482 µM
CC[C@@H](C(=O)[C@@H](C)[C@@H](O)[C@H](C)[C@@H]1O[C@@H]([C@@H](CC)C(=O)O)CC[C@@H]1C)C1O[C@]2(C=CC(=O)[C@]3(CC[C@@](C)([C@H]4CC[C@](O)(CC)[C@H](C)O4)O3)O2)[C@H](C)C[C@@H]1C (some centres undefined)	1.73 µM

Query: Param readout = GI50; param system = OVCAR-8 ovarian; param query = `COc1cc(-c2nc(Nc3nc4ccccc4[nH]3)nc(N)c2C#N)cc(OC)c1OC` ; response: value
Reply: 28.9 µM

Query: Param readout = GI50; param system = OVCAR-8 ovarian; param query = CC(=O)N1N=C2/C(=C/c3ccccc3)CC(C)CC2C1c1ccccc1 (centres undefined) ; response: value
Reply: 16.1 µM

Query: Param readout = GI50; param system = OVCAR-8 ovarian; param query = `COc1ccc(-c2[nH]c3ccccc3c2C=C(C#N)C#N)cc1` ; response: value
Reply: 1.1 µM

Query: Param readout = GI50; param system = OVCAR-8 ovarian; param query = `CCCN(CCC)C(=O)C1=Cc2ccc(-c3ccc(C(=O)N4CCCC4)cc3)cc2N=C(N)C1` ; response: value
Reply: 16.1 µM

Query: Param readout = GI50; param system = OVCAR-8 ovarian; param query = `O=c1c2cccc(Cl)c2sc2c(NCCCNCCO)nc3ccccc3c12` ; response: value
Reply: 2.91 µM
